- Tested on: Trypanosoma brucei rhodesiense (T. b. r.)
- test-method-notes: In vitro antiprotozoal activity against T. b. r.
- Assay type: cell-based
- experimental-context: Table 4; read-out: T. b. IC50
Structures can show the parent of a compound that is named as a salt.
endpoint: IC50 (µM)
Write the value in µM as a bare number.

I would be grateful if you could share the reported IC50 for CON=C(N)c1ccc(-c2ccc(-c3ccc(C(N)=NOC)nc3)cn2)cc1.Cl [Compound 91, hydrochloride salt] .
1.98

I would be grateful if you could share the reported IC50 for CON=C(N)c1ccc(-c2ccc(-c3ccc(C(N)=NOC)nc3)cc2)cn1 [Compound 68, hydrochloride salt] .
4.57
